# EXPERIMENTAL TARGET: T1, human MSLN full-length protein (NCBI: AAH09272.1) expressed on HEK293T-hMSLN-B8 cells (human, UniProt Q13421 296-598)
# T1 construct: Whole encoded precursor
# T1 sequence (Q13421 other isoform, or with tags, fused parts or gaps limits assumed): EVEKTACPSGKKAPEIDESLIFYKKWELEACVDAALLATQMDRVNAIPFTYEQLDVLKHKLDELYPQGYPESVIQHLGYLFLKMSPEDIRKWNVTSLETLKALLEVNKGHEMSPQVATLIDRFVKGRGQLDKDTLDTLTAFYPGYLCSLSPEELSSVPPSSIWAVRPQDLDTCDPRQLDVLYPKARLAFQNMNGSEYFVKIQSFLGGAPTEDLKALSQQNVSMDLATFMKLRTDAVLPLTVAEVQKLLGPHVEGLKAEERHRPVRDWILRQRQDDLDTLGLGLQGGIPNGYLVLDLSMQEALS
# TEST METHOD NOTES: FACS on HEK293T-hMSLN-B8 cells
OBSERVABLE: EC50 (nM)
Write the answer as a number in nM, unit excluded.

S009-F3.7.3 (antibody, human IgG1, kappa, V domains shown, human-murine chimeric antibody, human IgG1/kappa constant regions) VH: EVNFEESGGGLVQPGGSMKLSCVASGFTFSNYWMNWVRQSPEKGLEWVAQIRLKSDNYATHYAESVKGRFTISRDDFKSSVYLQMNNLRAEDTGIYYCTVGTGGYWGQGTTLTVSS VL: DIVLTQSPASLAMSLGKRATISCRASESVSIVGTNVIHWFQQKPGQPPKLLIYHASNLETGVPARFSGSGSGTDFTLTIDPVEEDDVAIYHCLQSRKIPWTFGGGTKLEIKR; 2.25

Attention now shifts to the item below.
Ask: Quick one: EC50 of S009-F3.16.1 (antibody, human IgG1, kappa, V domains shown, human-murine chimeric antibody, human IgG1/kappa constant regions) VH: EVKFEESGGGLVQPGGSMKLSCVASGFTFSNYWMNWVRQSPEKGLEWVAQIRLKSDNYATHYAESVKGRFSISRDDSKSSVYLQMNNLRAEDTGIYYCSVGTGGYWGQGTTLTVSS VL: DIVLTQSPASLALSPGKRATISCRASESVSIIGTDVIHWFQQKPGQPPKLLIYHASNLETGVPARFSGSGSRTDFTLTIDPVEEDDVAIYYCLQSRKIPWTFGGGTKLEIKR ?
Result: 1.46
